system_tested: human ether-à-go-go-related gene (hERG) potassium channel (human);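 further: peak tail current of the secondary pulse compared with the same well before compound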
Sequence (Q12809 whole entry, looked up): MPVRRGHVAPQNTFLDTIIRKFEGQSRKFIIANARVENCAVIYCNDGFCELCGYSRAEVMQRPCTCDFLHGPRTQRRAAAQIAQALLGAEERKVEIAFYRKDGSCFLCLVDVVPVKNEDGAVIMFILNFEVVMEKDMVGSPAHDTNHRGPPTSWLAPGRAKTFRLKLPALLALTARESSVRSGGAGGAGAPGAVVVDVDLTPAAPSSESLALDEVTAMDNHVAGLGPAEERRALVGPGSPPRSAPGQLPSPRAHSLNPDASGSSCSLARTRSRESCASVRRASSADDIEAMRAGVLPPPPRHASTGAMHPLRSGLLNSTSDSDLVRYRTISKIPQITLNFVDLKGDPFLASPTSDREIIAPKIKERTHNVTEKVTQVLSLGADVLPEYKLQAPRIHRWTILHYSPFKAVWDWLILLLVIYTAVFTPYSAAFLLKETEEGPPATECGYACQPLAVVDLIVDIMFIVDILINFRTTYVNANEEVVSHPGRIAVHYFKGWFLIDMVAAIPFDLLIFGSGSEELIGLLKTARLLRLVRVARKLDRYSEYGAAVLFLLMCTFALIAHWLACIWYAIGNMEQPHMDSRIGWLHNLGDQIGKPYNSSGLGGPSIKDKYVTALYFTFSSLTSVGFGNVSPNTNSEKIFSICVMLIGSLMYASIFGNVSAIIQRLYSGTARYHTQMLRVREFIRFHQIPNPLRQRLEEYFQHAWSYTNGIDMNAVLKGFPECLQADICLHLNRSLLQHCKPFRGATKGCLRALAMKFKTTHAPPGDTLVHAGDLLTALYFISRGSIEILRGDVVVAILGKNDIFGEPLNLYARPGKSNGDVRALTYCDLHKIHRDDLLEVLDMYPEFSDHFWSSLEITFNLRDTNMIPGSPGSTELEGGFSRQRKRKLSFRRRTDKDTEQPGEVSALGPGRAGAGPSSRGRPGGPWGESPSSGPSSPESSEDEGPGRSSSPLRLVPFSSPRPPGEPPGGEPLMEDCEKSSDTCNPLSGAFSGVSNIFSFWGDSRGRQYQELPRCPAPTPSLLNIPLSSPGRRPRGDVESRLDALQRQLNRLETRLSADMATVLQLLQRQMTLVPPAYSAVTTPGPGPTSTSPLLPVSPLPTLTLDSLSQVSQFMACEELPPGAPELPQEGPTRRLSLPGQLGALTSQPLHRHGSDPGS
protocol_summary: primary screen, population patch clamp on CHO cells stably expressing hERG; higher = less effect of the substance
Among all 310,000 compounds or so, about 14,000 (4.5%) showed an effect of 50% or more. The effect is printed as a negative number. Only a selection was taken, and strong results are over-represented in it overall.
measurement_kind: hERG current change (%, negative = inhibition) at 10uM
Answer format: value, then unit.

Worked examples, 3 molecules total:
>>> df
                                   molecule  reported_value
0  O=C(OCn1nnc2ccccc2c1=O)c1cc(-c2ccccc2Cl)nc2ccccc12           12.8%
1            CCCCn1c(-c2ccco2)nc2ccccc2c1=O          -12.2%
2       CCN(CC)CCOCCOC(=O)C(CC)(CC)c1ccccc1          -9.35%

[in] What measured hERG current change (%, negative = inhibition) at 10uM goes with `COCCCn1c(-c2ccco2)nc2ccccc2c1=O` ?
[out] -16%

[in] What do you get for `CN1CCC(N(C)C(=O)c2cc(-c3ccccc3Cl)nc3ccccc23)CC1.Cl` ?
[out] -84.3%

[in] What do you get for CCC(=O)Nc1ncc2c(n1)CC(c1ccco1)CC2=O (stereo not drawn) ?
[out] 7.92%

[in] What do you get for `O=c1c2ccccc2nc(-c2ccco2)n1CCCn1ccnc1` ?
[out] -53.9%

[in] What do you get for `Cc1cccc(NS(=O)(=O)c2nnc(NC(=O)c3cccc(C)c3)s2)c1` ?
[out] 2.44%

[in] What do you get for `CCN(CC)CCOC(=O)C(O)(c1ccccc1)c1ccccc1.Cl` ?
[out] -42.1%

[in] What do you get for CCC(C(=O)OCCOCCN(CC)CC)c1ccccc1 (stereo not drawn) ?
[out] 1.01%

[in] What do you get for CCN1CCCC(OC(=O)c2cc(-c3ccccc3Cl)nc3ccccc23)C1.Cl (stereo not drawn) ?
[out] -65.3%

[in] What do you get for `O=c1c2ccccc2nc(-c2ccccc2)n1CCCn1ccnc1` ?
[out] -31.9%

[in] What do you get for CCN(CC)CCOC(c1ccccc1)c1ccc(C)cc1.Cl (stereo not drawn) ?
[out] -73%

[in] What do you get for `CCN(CC)CCCOC(=O)C(c1ccccc1)c1ccccc1.Cl` ?
[out] -56.5%

[in] What do you get for `CN(C)C=O.Cc1ccc(S(=O)(=O)N(C)C)cc1NC(=S)Nc1ccc2[nH]c(=O)[nH]c2c1` ?
[out] 76.2%

[in] What do you get for CCCOc1ccc(C(C(=O)OCCN(CC)CC)c2ccccc2)cc1.O=C(O)C(=O)O (stereo not drawn) ?
[out] -43%

[in] What do you get for `CCNCCOC(c1ccccc1)c1ccccc1.Cl` ?
[out] -31.8%

====

system_tested: human ether-à-go-go-related gene (hERG) potassium channel (human);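 further: peak tail current of the secondary pulse compared with the same well before compound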
protocol_summary: primary screen, population patch clamp on CHO cells stably expressing hERG; higher = less effect of the substance
Out of some 310,000 compounds screened, about 14,000 (4.5%) showed an effect of 50% or more. The effect is printed as a negative number. The sample holds strong results, similar compounds and a random draw of the others, so the mix is not that of the screen.
measurement_kind: hERG current change (%, negative = inhibition) at 10uM (%)
I only need the number, in %, no unit after it.

[in] What measured hERG current change (%, negative = inhibition) at 10uM goes with Cc1noc(/C=C/c2cccs2)c1S(=O)(=O)N1CCC(C(=O)NCCCN2CCCC(C)C2)CC1 (stereo not shown) ?
[out] -44.5

[in] What do you get for `COc1ccc(N2CCN(CCNC(=O)C3CCN(S(=O)(=O)c4cccs4)CC3)CC2)cc1` ?
[out] -50.7

[in] What do you get for `O=C(NCCN1C(=O)S/C(=C\c2ccc(F)cc2)C1=O)C1CCN(S(=O)(=O)c2cccs2)CC1` ?
[out] -7.1

[in] What do you get for `COCCNC(=O)C1CCN(S(=O)(=O)c2c(C)noc2/C=C/c2cccs2)CC1` ?
[out] -34.7
